Listing: IC50 at 72 h of selected compounds
- assay protocol: Cytotoxicity against HEK293 cells assessed as inhibition of cell growth incubated for 72 hrs by alamar blue dye based fluorescence assay
- Type: toxicity
- particulars: human

Solved cases below.
C[C@H]1[C@@H](O)O[C@@H]2O[C@@]3(C)CC[C@H]4[C@H](C)CC[C@@H]1[C@@]24OO3 [ARTENIMOL]    > 4 µM
CCN(CC)CCCC(C)Nc1ccnc2cc(Cl)ccc12 (centres undefined) [CHLOROQUINE]    > 10 µM

// CCc1nc(N)nc(N)c1-c1ccc(Cl)cc1 [PYRIMETHAMINE] : IC50 at 72 h value = > 10 µM

// COc1ccc(C[C@H](N)C(=O)N[C@H]2[C@@H](O)[C@H](n3cnc4c(N(C)C)ncnc43)O[C@@H]2CO)cc1 [PUROMYCIN] : IC50 at 72 h value = 0.664 µM

###

Listing: log10 IC50 of selected compounds
- Test system: Haemonchus contortus
- assay protocol: Anthelmintic activity against third stage larvae of Haemonchus contortus assessed as reduction in larval motility measured at 168 hrs by microscope based analysis
- Type: functional, organism-based
Form field - Quantity: IC50; Unit: µM; Scale: log10

COC(=O)c1cc2c(c(OC)c1OC)[C@H](C)C[C@@H](OC(=O)NCc1ccccc1)[C@H]2[C@@H](C)CCC=C(C)C    -0.40
COC(=O)c1cc2c(c(OC)c1OC)[C@H](C)C[C@@H](OC(=O)Nc1cc(C(F)(F)F)cc(C(F)(F)F)c1)[C@H]2[C@@H](C)CCC=C(C)C    -0.10
CC(C)=CCC[C@H](C)[C@H]1c2cc(C(=O)O)c(O)c(O)c2[C@H](C)C[C@H]1O    0.56
CO/N=C1\C[C@]2(C[C@@H]3C[C@@H](C/C=C(\C)C[C@@H](C)/C=C/C=C4\CO[C@@H]5[C@H](O)C(C)=C[C@@H](C(=O)O3)[C@]45O)O2)O[C@H](/C(C)=C/C(C)C)[C@H]1C [MOXIDECTIN]    0.48
C[C@](C#N)(COc1cc(C#N)ccc1C(F)(F)F)NC(=O)c1ccc(SC(F)(F)F)cc1 [MONEPANTEL]    -0.70

// `COC(=O)c1cc2c(c(OC)c1OC)[C@H](C)C[C@@H](OC(=O)Nc1ccc(C#N)cc1)[C@H]2[C@@H](C)CCC=C(C)C` : log10 IC50 value = 0.95

// `COC(=O)c1cc2c(c(OC)c1OC)[C@H](C)C[C@@H](O)[C@H]2[C@@H](C)CCC=C(C)C` : log10 IC50 value = 0.69

// `COC(=O)c1cc2c(c(OC)c1OC)[C@H](C)C[C@@H](OC(=O)Nc1ccc(C)cc1)[C@H]2[C@@H](C)CCC=C(C)C` : log10 IC50 value = 0.85

// `COC(=O)c1cc2c(c(OC)c1OC)[C@H](C)C[C@@H](OC(=O)Nc1cccc(Cl)c1)[C@H]2[C@@H](C)CCC=C(C)C` : log10 IC50 value = 0.20

// `COC(=O)c1cc2c(c(OC)c1OC)[C@H](C)C[C@@H](OC(=O)Nc1ccc([N+](=O)[O-])cc1)[C@H]2[C@@H](C)CCC=C(C)C` : log10 IC50 value = 0.81

// `COC(=O)c1cc2c(c(OC)c1OC)[C@H](C)C[C@@H](OC(=O)NS(=O)(=O)c1ccc(C)cc1)[C@H]2[C@@H](C)CCC=C(C)C` : log10 IC50 value = 0.79

// `COC(=O)c1cc2c(c(OC)c1OC)[C@H](C)C[C@@H](OC(=O)Nc1ccc(Cl)cc1)[C@H]2[C@@H](C)CCC=C(C)C` : log10 IC50 value = 0.26

// `COC(=O)c1cc2c(c(OC)c1OC)[C@H](C)C[C@@H](OC(=O)Nc1ccc(F)cc1)[C@H]2[C@@H](C)CCC=C(C)C` : log10 IC50 value = 1.50

# credit: ChEMBL document CHEMBL5252581
